Test system: RARb homodimer (NR concentration 270 nM)
PROTOCOL DESCRIPTION: PBM binding z-score (relative to random genomic background probes); higher = stronger binding; sequences stand for … in GC…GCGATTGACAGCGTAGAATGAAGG
PARAMETER: PBM binding z-score

The following sequences have reported results that may help.
{"PRIMARY SEQUENCE": "CCCGACAGGTGAGAAGGTAACTCAGCCTCGATTA", "TEST VALUE": 0.604}
{"PRIMARY SEQUENCE": "TCGAGTATGTTACCAATGGGGCATTCAGCTTTCT", "TEST VALUE": -0.135}
{"PRIMARY SEQUENCE": "ACACACAGGTGAGTGAAGGTAACTCAGCTGGACG", "TEST VALUE": -0.00486}
{"PRIMARY SEQUENCE": "TCGAGTAGGTTAGTCGGGGCGTTCAGCCAACATA", "TEST VALUE": -0.146}
{"PRIMARY SEQUENCE": "TCATATAGGAAAAAGGTGAAAGTCGGTGTGGTAA", "TEST VALUE": 1.66}
{"PRIMARY SEQUENCE": "GATACAGGGTCAGCTAGGGGCCAGAGTATGGAAA", "TEST VALUE": 3.52}

RARb homodimer (NR concentration 270 nM) assay, sequence `GCATATGGGTAATACAAGGTGAAAGTCCGATTGT` , recorded PBM binding z-score = 0.725

Case `CCAAGCAGGCCAATCTGGGTCACTCAAGGCTTGA` , RARb homodimer (NR concentration 270 nM), PBM binding z-score recorded as 2.26

Measured on RARb homodimer (NR concentration 270 nM), `CGAACGAGGGCATGAGTTGATAGCTAATGCCGAT` has a documented PBM binding z-score of 0.599

The measured PBM binding z-score that `GGAACAAGGGCAAAGTTGATAGCATCTGTCGACG` showed for RARb homodimer (NR concentration 270 nM) is 1.5

Entry `TCAGATAGGTGAAGGTAACTCAGGTACGCAGTCG` , tested on RARb homodimer (NR concentration 270 nM), has a reported PBM binding z-score of 0.689

The measured PBM binding z-score that `TCATATAGGTAAATGCCAGGTGAAAGTCCGATCT` showed for RARb homodimer (NR concentration 270 nM) is 0.815
